Measured protease stability score, listed per entry for reference.
assay: protease stability score; higher = more stable; yeast display proteolysis, trypsin and chymotrypsin;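 note: relative to predicted unfolded state with 0 unfolded-like and 1 meaning tenfold more protease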
readout: protease stability score

sequence code | endpoint value
DEEEKLMKHRWEEWVRFLKTGDFDEIHDYMDPNVRLFIGDKTFHGRDVFARLVYRMGAKHVEFDLHDEHLINGKLIFHGRVVHTQGDKFIEFEVEIIAEKVNGKWLNRHQIFR | 0.456
DEDEEITERIIRLLLNAWMTGDEEMLKRLFDPHVRIDQGDKNLIGWEELERETRRIDHIRLDLRIKHIKVYDGRVEINSFLHVDLHINGVTLHHELRMHIIIEKVDGRWIIHSQKLE | 1.25
DEEIEMLTKLAELFIRLWLTGNEDILESMADPRVRLEINGREHHGRDIVRKIFEHDRHHMRLESIQLHDRRVYNGRADLHGTQYGEINGKRETYTVRLILVIINGRIETVKVIVE | 1.14
SEETEFAKEMLDIIFNLLRTGDWEYLVRLMDPHVRVIYGDKVTHGRDIIQYMHEHIRIRHLEFRHFDVIGDKINVDGRMEGEVNGRHDKTEMHIILLKINGRWSLHSIEIR | 1.39
DEDEQMKESLLKIYRQSMHTGDEESHERLADPNVRVDWDGVRYHGRHILAIILHELGADHMDLKIKDSRLVNGRIHMTVIEIIDIGDKKHKIETHLIADKFDGRWHLRTLEIR | 0.785
SEIEKLLIDWLEHMVRAHKTGDWQNLLNMLDPHTRLNINGQHNIGRDKLTHLIREEEDRFGVDNIELHLHLEDIDIQGEKVNMKVQRHVNVNGREYTDEVELIIVKINGRWLLESIHVH | 0.932

###

experiment: protease stability score; higher = more stable; yeast display proteolysis, trypsin and chymotrypsin;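 note: relative to predicted unfolded state with 0 unfolded-like and 1 meaning tenfold more protease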
Classify by measured protease stability score: criterion met if it is equal to or exceeds 2, criterion not met if it is smaller.

sequence code | qualitative label
SEEEKIMEELLRRIVNALQTGDEDFWSHLADPDTRFVLIQGEWSDEVHGRENALKFMEELKKRVPGMRIRVKDSRVQGEKLHVDGEIIYNGRSFDVEIRLRVVDGRIHEFQIIIR | criterion met
SEEEEMARRFTDRLLHFTQTGDERLVHEFVDPNARDDVNGREFHGWRSIHDIMRRLGIDHIRIRHIEVQGDKVRSHWQYVFNGVILEVEINTEKVDGRWLIKSVTFK | criterion not met
DKEEEEVREALRILLEEWHTGDFDRILDLFDPNDRMHIGDKDLHGRHIMEHFYDHMIKRVKNMRIELTDVRFQGDKVWFHVKEHFDGRTISSEIVLVKINGKWRIETIFII | criterion not met
SEDDHELEHAARRHFRDFWTGDWKSISRFLDPDAKVELLVNGQHIEIHGREQIIEQMLRIPNLRFELKRVHTEIYGEKMHVHVRGVVEFDGVREDVVLIFIFEKFNGRWHISKESREFR | criterion not met
DRHERKKVAKDFNEALETNDHEQLMEQMDPNARIKYGDKHYHGREDLRRFWKKLVDSVDHITVDKMQVRGEEVVVLAKAESNGRNETFRLVMEFHNGRIKFVRKDTP | criterion not met
DDEEKRIQEASREMLEIMRTGDEERLKQMADPNARWHTKIDGQEVHRHGREEFIKIFRWVMERLGIDHVELHSIHIYNGQNDIDSRFHFDGRNHRILFIWVVYNGRLHHVRIEIQ | criterion not met
DETHEEHNRFAEEYVHALHTGDEDRLRELMDPNVRFILIIDGKEVRLHGWELLLRVIREFWERFKNIRIFIRDIDLQGEKIRLETEVNVDGVDEHWRINMVVVNGRIKSLIIEQR | criterion met
DEDHKSAEDMLRLLLETVITGDETLLEKLADPHVRLRVGDKKFIGMEELLRLLDEEKKRLGYTRVDLVLHHREVQGDKLHLETELRVNGRTYQTHWIALKINGRWIIHEVSIR | criterion met
